measured.target: HCV NS2/3 (810-1615BK) (Hepatitis C virus genotype 1b)
Construct: HCV residues 810-1615 of the BK strain; made in house; host or cells: in vitro translation in rabbit reticulocyte lysate from plasmid pCITE 810-1615BK
Sequence (P26663 810-1615): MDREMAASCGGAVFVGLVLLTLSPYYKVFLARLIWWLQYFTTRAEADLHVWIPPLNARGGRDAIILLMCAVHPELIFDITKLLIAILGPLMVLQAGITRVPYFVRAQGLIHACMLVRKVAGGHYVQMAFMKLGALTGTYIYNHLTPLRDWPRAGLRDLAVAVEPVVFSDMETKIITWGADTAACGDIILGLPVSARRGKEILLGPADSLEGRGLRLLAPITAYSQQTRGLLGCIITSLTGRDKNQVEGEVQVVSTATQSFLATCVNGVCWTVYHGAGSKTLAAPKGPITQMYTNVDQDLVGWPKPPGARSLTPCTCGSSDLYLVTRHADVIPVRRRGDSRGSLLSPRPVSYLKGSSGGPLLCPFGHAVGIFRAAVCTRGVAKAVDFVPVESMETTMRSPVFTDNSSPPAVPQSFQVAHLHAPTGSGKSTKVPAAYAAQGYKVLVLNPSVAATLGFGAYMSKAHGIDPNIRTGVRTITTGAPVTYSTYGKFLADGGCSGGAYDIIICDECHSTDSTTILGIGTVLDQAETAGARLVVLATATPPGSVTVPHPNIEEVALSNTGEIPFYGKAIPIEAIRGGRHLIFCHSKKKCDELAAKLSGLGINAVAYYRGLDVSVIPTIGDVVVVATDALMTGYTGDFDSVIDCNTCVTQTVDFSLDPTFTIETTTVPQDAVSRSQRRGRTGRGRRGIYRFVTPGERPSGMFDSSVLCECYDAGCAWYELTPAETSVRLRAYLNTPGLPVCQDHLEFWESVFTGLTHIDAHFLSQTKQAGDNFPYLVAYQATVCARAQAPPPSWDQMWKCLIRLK
Format: biochemical, Hepatitis C virus (BK strain)
stated.conditions: titration; residual ATP approximately 1 mM; read-out: IC50, inhibition of NS2/3 processing
Exercise: for every item that follows, state its recorded IC50.
Answers are plain numbers, in mM.

Nc1ncnc2c1ncn2[C@@H]1O[C@H](COP(=O)(O)OP(=O)(O)OP(O)(O)=S)[C@@H](O)[C@H]1O: 2

Moving on to another molecule below.
Would you kindly share the measured IC50 for `Nc1ncnc2c1ncn2[C@@H]1O[C@H](COP(=O)(O)OP(=O)(O)NP(=O)(O)O)[C@@H](O)[C@H]1O` ?
4
